tested on: SF-268 CNS; experiment: NCI-60 one-dose screen, 48 h (100 = growth as untreated, 0 = no growth, -100 = all killed); settings: 10 µM unless noted
Compounds without any hit were thinned out: in the full panel of roughly 83,000, 20% have a hit.
endpoint-label: growth (%)
Field: numeric (%). Do not append units.

structure-notation	endpoint-label	result
COc1cc(-c2c(C#N)c(-c3cccs3)nc3c2c(-c2ccccc2)nn3-c2ccccc2)ccc1O	growth	80.4
COC(=O)[C@]12CC[C@@H](C)[C@H](C)[C@@H]1C1=CC(=O)[C@@H]3[C@@]4(C)C[C@@H](O)[C@H](O)[C@@]5(C)COC(=C45)C[C@@]3(C)[C@]1(C)CC2	growth	80.8

What value of measured growth is listed for CN1CCN(CCOc2ccc(-c3cnc4c(-c5cccc(F)c5)cnn4c3)cc2)CC1 ?
80.4

* * *

system: PC-3 prostate; assay: NCI-60 one-dose screen, 48 h; details: 10 µM unless noted
Compounds without any hit were thinned out: in the full panel of roughly 83,000, 20% have a hit. Calls of active or inactive are those of the source. Rule for the calls: active = growth percent below 10; inactive = the rest.
Lab note: assign the record to one of active, inactive

> print(dat)
                                   compound  classification
1  Fc1ccc2nc(-c3cc(-c4ccc5c(c4)OCO5)n[nH]3)[nH]c2c1        inactive
2  O=C1c2ccccc2NC(c2cn(-c3ccccc3)nc2-c2cccs2)N1Cc1ccccc1 (stereo not given)        inactive
3          CSc1ccc(N(C)c2nc(C)nc3c2CCC3)cc1        inactive
4  C/C(=C(/c1ccccc1)c1ccc(N2C(=O)c3cccc4c(NCc5ccccc5)ccc(c34)C2=O)cc1)c1ccccc1        inactive
5  N#C/C(=C\c1ccc(-c2ccc(Br)cc2)o1)c1nc(-c2ccco2)cs1        inactive

Could you check what this test reported for COc1cc2c(cc1-c1c(C)noc1C)ncc1nc(C3CCCCC3)n([C@@H](C)COC(F)F)c12 ?
inactive

Could you check what this test reported for COc1cc(/C=C/c2cc(/C=C/c3ccc(O)c(OC)c3)n(-c3ccc(Cl)cc3)c(=O)n2)ccc1O ?
inactive

Could you check what this test reported for C#Cc1cccc(NC(=O)C2CCCN(C(=O)CCl)C2)c1 (stereo not given) ?
inactive

Could you check what this test reported for O=c1[nH]c2c3ccncc3cc(-c3cccc(Cl)c3)c2c2cnccc12 ?
inactive

Could you check what this test reported for COc1cccc(-c2nn(-c3ccccc3)cc2-c2ccnc(NCCNS(=O)(=O)c3ccccc3)c2)c1 ?
inactive

* * *

Tested on: UO-31 renal
Assay: NCI-60 one-dose screen, 48 h (100 = growth as untreated, 0 = no growth, -100 = all killed)
Conditions: 10 µM unless noted
Protocol: Growth inhibition of the UO-31 human tumor cell line is measured as a screen for anti-cancer activity. Cells are grown in 96 well plates and exposed to the test compound for 48 hours. Compounds are tested at a single concentration, which is 10^-5 M for most compounds. The reported endpoint is percent growth (GI% or GIPRCNT), where numbers from 0 - 100% represent growth inhibition, and numbers from -100% - 0 represent cell death. For example, a value of 40 represents 60% growth inhibition. […]
Compounds without any hit were thinned out: in the full panel of roughly 83,000, 20% have a hit.
Give TRUE when the value for growth is at least 50%. Give FALSE when it is less.

Solved entries (count: 3):
molecule	classification
COC(=O)[C@]12CC[C@@H](C(/C=C/c3cccnc3)=N/O)[C@@H]1[C@H]1CC[C@@H]3[C@@]4(C)CC(=C/c5cccnc5)/C(=N/O)C(C)(C)[C@@H]4CC[C@@]3(C)[C@]1(C)CC2	FALSE
C=C1C(=O)O[C@H]2[C@H]1CC/C(Cn1cc(-c3ccc(OC)cc3)nn1)=C\CC[C@@]1(C)O[C@@H]21	FALSE
C=C(C)[C@@H]1CC[C@]2(C(=O)N3CCN(C)CC3)CC[C@]3(C)[C@H](CC[C@@H]4[C@@]5(C)C/C(=C/c6ccc(C(F)(F)F)cc6)C(=O)C(C)(C)[C@@H]5CC[C@]43C)[C@@H]12	TRUE

Decide: growth of NCCn1cc(-c2nc(-c3c[nH]c4ncccc34)cs2)c2cc(F)ccc21 >= 50%?
TRUE

Decide: growth of N#C/C(=C\c1ccc(-c2ccccc2)o1)c1nc(-c2ccco2)cs1 >= 50%?
TRUE

Decide: growth of Cn1cc(-c2csc(-c3cn(C(=O)OC(C)(C)C)c4ccc(Br)cc34)n2)c2cccnc21 >= 50%?
TRUE

Decide: growth of C=C1C(=O)O[C@H]2[C@H]1CC/C(COC(=O)N[C@H](Cc1c[nH]c3ccccc13)C(=O)OC)=C\CC[C@@]1(C)O[C@@H]21 >= 50%?
FALSE

Decide: growth of CC(=O)n1c(/C(C#N)=C/c2ccc(N(C)C)cc2)cc2ccccc21 >= 50%?
TRUE

Decide: growth of Cc1cc(N2CCCC2)nc(N(CCNc2ccnc3cc(Cl)ccc23)Cc2ccco2)n1 >= 50%?
FALSE

Decide: growth of COc1cc(-c2nc(-c3ccccc3)c(-c3ccccc3)[nH]2)cc(OC)c1O >= 50%?
FALSE

Decide: growth of Cc1nn(-c2ccc(Cl)cc2)c(=O)n1CCn1cnc2ccccc21 >= 50%?
TRUE

Decide: growth of C=C(C)[C@@H]1CC[C@]2(C(=O)O)CC[C@]3(C)[C@H](CC[C@@H]4[C@@]5(C)C/C(=C/c6ccc(OC)cc6)C(=O)C(C)(C)[C@@H]5CC[C@]43C)[C@@H]12 >= 50%?
FALSE

* * *

Items are presented alongside their recorded growth.
test system: HOP-62 NSCLC; assay: NCI-60 one-dose screen, 48 h (100 = growth as untreated, 0 = no growth, -100 = all killed); conditions: 10 µM unless noted
Compounds without any hit were thinned out: in the full panel of roughly 83,000, 20% have a hit. Activity calls are given as the source filed them. How the source made its calls: active means growth percent below 10; inactive means the rest.

These recorded examples may help you get a feel for the data.
> print(dat)
                                   compound           result
1  Cn1cc(-c2nc(-c3c[nH]c4ncccc34)cs2)c2cc(Br)ccc21  109% (inactive)
2  C/C(=C(/c1ccccc1)c1ccc(N2C(=O)c3cccc4c(NCc5ccccc5)ccc(c34)C2=O)cc1)c1ccccc1  100% (inactive)

Now look at this entry.
What value of measured growth is listed for Nc1nc(Br)nc2c1ncn2C1CC(O)C(CO)O1 (stereo not drawn) ?
47% (inactive)

* * *

system: MOLT-4 leukemia; assay: NCI-60 one-dose screen, 48 h; conditions: 10 µM unless noted
The panel holds about 83,000 compounds, 20% with a hit somewhere; the sample as a whole holds those more often. Activity calls are given as the source filed them. How the source made its calls: active means growth percent below 10; inactive means the rest.
Lab note: assign the record to one of active, inactive

structure-notation	classification
COc1ccc(/C=C/C(=O)c2ccc([N+](=O)[O-])cc2)cc1	inactive
O=Cc1nc2ccccc2[nH]1	inactive
COC(=O)[C@]12CC[C@@H](C)[C@H](C)[C@@H]1C1=CC(=O)[C@@H]3[C@@]4(C)C[C@@H](OC(C)=O)[C@H](OC(C)=O)[C@@](C)(COC(C)=O)[C@@H]4C(=O)C[C@@]3(C)[C@]1(C)CC2	active
COc1ccccc1CNc1nc(N)nc2[nH]c3ccc(O)cc3c12	inactive
COCCNC1=C(Cl)C(=O)c2ccccc2C1=O	inactive
COc1cccc(-c2nn(-c3ccccc3)cc2-c2ccnc(NCCNS(=O)(=O)c3ccccc3)c2)c1	inactive
Fc1ccc(Nc2ccc3c(OCCCN4CCOCC4)cccc3n2)cc1F	inactive
CC(C)c1cc(C(=O)O)c(O)c(C(C)C)c1.CC(C)c1cc(C(=O)O)c(O)c(C(C)C)c1.[Mn]	inactive

Could you check what this test reported for COc1ccc(-c2cc(=O)oc3ccc(Cl)cc23)cc1F ?
active

Could you check what this test reported for Nc1c(Cl)cc(N=Nc2ccccc2)cc1Cl ?
inactive

Could you check what this test reported for Cn1cc(-c2csc(-c3cn(CCNC(=O)OC(C)(C)C)c4ccc(F)cc34)n2)c2cccnc21 ?
inactive

Could you check what this test reported for COc1cc(-c2nc(-c3ccccc3)c(-c3ccccc3)[nH]2)cc(OC)c1O ?
active

* * *

system: NCI-H522 lung; experiment: NCI-60 one-dose screen, 48 h (100 = growth as untreated, 0 = no growth, -100 = all killed); conditions: 10 µM unless noted
Compounds without any hit were thinned out: in the full panel of roughly 83,000, 20% have a hit.
Items are presented alongside their recorded growth.
Field: numeric (%). Do not append units.

> print(dat)
                         structure.notation  result
1  Cc1ccc2c(c1)c(-c1nc(-c3c[nH]c4ncccc34)cs1)cn2C    70.5
2  CC1(C)CC[C@]2(CO)CC[C@]3(C)C(=CC[C@@H]4[C@@]5(C)CC[C@H](NCO)C(C)(C)[C@@H]5CC[C@]43C)[C@@H]2C1   -29.5
3  c1ccc2[nH]c(-c3ccc(Nc4nc(N5CCCCC5)nc(N5CCOCC5)n4)cc3)nc2c1    9.25
4  CCN(CC)CCCCCNc1cc(OC(=O)c2ccccc2)cc2cccnc12     124
5  COc1ccc(-c2nc(Nc3ccc(-c4nc5ccccc5[nH]4)cc3)nc(N3CCOCC3)n2)cc1    11.9

What value of measured growth is listed for c1ccc(-c2nc(Nc3ccc(-c4nc5ccccc5[nH]4)cc3)nc(N3CCOCC3)n2)cc1 ?
-68.2

What value of measured growth is listed for Cc1ccc(-c2ccc(/C=C(\C#N)c3nc(-c4ccco4)cs3)o2)cc1 ?
96.4
